experiment: NCI Yeast Anticancer Drug Screen. Data for the mlh1 rad18 strain (AID 175); conditions: S. cerevisiae mlh1 rad18 strain growth inhibition; at 50.0 µM (retest, dose inferred, filed as 5.0)
Compounds without any hit were thinned out: in the full panel of roughly 79,000, 15% have a hit. Activity calls are given as the source filed them. No stated cut-off is given here; in the data, active means growth inhibition above about 70%; inactive means the rest.
Outcome codes: true (1) (active), false (0) (inactive)

                                    compound  qualitative_label
 0  Nc1nc(=O)[nH]c([O-])c1N=O.Nc1nc(=O)[nH]c([O-])c1N=O.[Ag+].[Ag+]          false (0)
 1            C(/C=C/CC=Nc1ccccc1)=Nc1ccccc1          false (0)
 2             O=C1SC(c2ccccc2)=S=C1c1ccccc1          false (0)
 3        O=C(CBr)N1c2ccccc2Sc2ccc3ccccc3c21           true (1)
 4      COCCOC1=C(Cl)C(=O)c2c(O)ccc(O)c2C1=O           true (1)
 5  CCC[N+]1=C(/C=C/c2cc(C)c3cccnc3c2O)C(C)(C)c2ccccc21           true (1)
 6  Nc1nc(Cl)cc(NCC2(CO)CC(CCCc3ccccc3)C2)n1 (stereo not drawn)          false (0)
 7     CCCn1cnc2c(SCc3ccc(Cl)cc3Cl)nc(N)nc21          false (0)
 8  CC([NH-])C(=O)O.[Cu+2].[NH-]C(Cc1cnc[nH]1)C(=O)O (stereo not drawn)          false (0)
 9  CSCCC(NC(=O)C(CCSC)NS(=O)(=O)Cc1ccccc1)C(=O)O (stereo not drawn)          false (0)
10  CCCCCCCCCCCCCCCCCC[n+]1cccc(C(=O)c2ccccc2)c1           true (1)
11  CC[N+]1(C)CCC(O)(c2ccc(Cl)c(Cl)c2)C(C(=O)c2ccc(Cl)c(Cl)c2)C1 (stereo not drawn)           true (1)
12             CN(Nc1ccc(Cl)cc1)c1ccc(Cl)cc1           true (1)
13  COc1ccc2c(c1)CC1c3c(ccc(OC)c3O)CC2N1C (stereo not drawn)          false (0)
14  Cc1ccc(C2(O)CC(c3ccc([N+](=O)[O-])o3)=NN2C(=O)COc2ccc(Cl)cc2)cc1 (stereo not drawn)          false (0)
15                    Oc1ccc(Cl)cc1-c1ccccc1           true (1)
16      CCCC/C=C(/CCCNCCc1ccccc1)[Si](C)(C)C           true (1)
17  NS(=O)(=O)c1ccc(N=Cc2c3ccccc3nc3cc(Cl)ccc23)cc1          false (0)
18  NC(CSSCC(N)=NCCCCCSC12CC3CC(CC(C3)C1)C2)=NCCCCCSC12CC3CC(CC(C3)C1)C2          false (0)
19  Cc1ccc(S(=O)(=O)Oc2c([N+](=O)[O-])cc(C)cc2[N+](=O)[O-])cc1          false (0)
20         Cc1ccc(N2C(=O)C(Cl)=C(Cl)C2=O)cc1           true (1)
21  C[Si](C)(C)CN1C(=O)c2ccccc2C1(O)c1ccccc1 (stereo not drawn)          false (0)
22  Oc1c2c(c(O)c3ncccc13)C1C=CC2CC1 (stereo not drawn)           true (1)

---

test: NCI Yeast Anticancer Drug Screen. Data for the sgs1 mgt1 strain (AID 161);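 further: 0% = growth of cultures given vehicle only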; details: S. cerevisiae sgs1 mgt1 strain, at 5.0 µM (retest, dose inferred, filed as 0.5), stronger effect = higher value
The panel holds about 79,000 compounds, 15% with a hit somewhere; the sample as a whole holds those more often.
Consider the reported growth inhibition of an entry and match it to a band in low: < 10%; mid: ≥ 10% and < 70%; high: ≥ 70%

>>> print(df.to_string())
                                    compound  qualitative_label
 0  COC(=O)C1(c2ccc(N(C)C)cc2OC)CCCN(C(=O)Oc2ccccc2[N+](=O)[O-])CCc2c1[nH]c1ccccc21 (centres undefined)                mid
 1         O=C(NNc1nc(-c2ccccc2)cs1)C(F)(F)F               high
 2               c1ccc(Cn2nnnc2-c2ccccc2)cc1                low
 3  CO[C@H]1CC[C@@]2(C)C(=CC[C@H]3[C@@H]4C[C@H](OC(C)=O)C[C@@]4(C)CC[C@@H]32)C1                low
 4  C[Si](C)(C)CC(c1ccccc1)C(O)c1ccccc1 (centres undefined)                low
 5  O=C1C(Cl)C(c2cc(Br)cc(Br)c2O)N1n1cnc2ccccc2c1=O (centres undefined)                mid
 6         COC(=O)c1cccc2c3ccccc3c3ccccc3c12                low
 7             N#CC(C#N)=C1C(Br)=CCc2ccccc21               high
 8  O=C(CC1(O)C(=O)Nc2c(Cl)cc(Cl)cc21)c1ccc(Br)cc1Br (centres undefined)               high
 9              Nc1cc(Cl)ccc1SSc1ccc(Cl)cc1N                mid
10                          COC(=O)C(CBr)CBr                mid
11  CCN(CC)c1cc(Nc2c3ccc(Cl)cc3nc3cc(Cl)ccc23)ccc1O                low
12      O=[N+]([O-])c1cc(CNCCO)c(O)c2ncccc12               high
13  N#CC1=C(N)OC(c2ccccc2)=C(C#N)C1c1ccccc1 (centres undefined)               high
14          CC(=O)c1c(O)c2ccc(Cl)cc2[nH]c1=O               high
15         c1cc2c3c(c1)[I+]c1cccc(c1-3)[I+]2                mid
16      Cc1cc(SCC(=O)c2ccc(Br)cc2)cc(C)[o+]1                mid
17                 Cc1ccccc1NC(=S)Nc1ccccc1O                low
18          O=C(Nc1ccc(Cl)cc1)Nc1cc(Cl)ccc1O                low
19  COc1ccc(N2CCN(CC(O)COc3cc4c(c5c3CCCC5)CCCC4)CC2)cc1 (centres undefined)                mid
20  OC(CC(CC(O)(C(F)(F)Cl)C(F)(F)Cl)=NNc1ccccc1)(C(F)(F)Cl)C(F)(F)Cl               high
21                     Oc1ccc(-c2ccccc2)cc1O                mid

---

assay: NCI Yeast Anticancer Drug Screen. Data for the bub3 strain (AID 167); details: S. cerevisiae bub3 mutant strain, at 50.0 µM, stronger effect = higher value
This is part of a sample that, as a whole, favours compounds with a hit. Of some 79,000 tested, about 15% had one in any assay.
RECORDED ENDPOINT: growth inhibition (%)

>>> print(df.to_string())
                                   molecule  u  observed_value
0  CCCCNCCC1(c2ccccc2)C(=O)Oc2ccccc21 (stereo unspecified)  %           -9.45
1  Cc1ccc(S(=O)(=O)/C=C2\COc3ccccc3C2=O)cc1  %            99.5
2  CCOC(=O)Nc1cc2c(cc1Br)-c1ccccc1C2O (stereo unspecified)  %            69.4
3  CC1=NN(C(=O)c2ccncc2)C(=O)C1N=Nc1ccc(C)c([N+](=O)[O-])c1 (stereo unspecified)  %            3.65
4    COc1cc(N=Nc2ccccc2)cc(/C=N/NC(N)=S)c1O  %            58.3
5        C=CCSc1nc2ccc(N3C(=O)C=CC3=O)cc2s1  %              99

---

assay: NCI Yeast Anticancer Drug Screen. Data for the mlh1 rad18 strain (AID 175); conditions: S. cerevisiae mlh1 rad18 strain growth inhibition; at 50.0 µM (retest, dose inferred, filed as 5.0)
The panel holds about 79,000 compounds, 15% with a hit somewhere; the sample as a whole holds those more often. Calls of active or inactive are those of the source. No stated cut-off is given here; in the data, active means growth inhibition above about 70%; inactive means the rest.
Outcome codes: 1 (active), -1 (inactive)

>>> df
                                    compound  qualitative_label
 0  O=C(SCCCc1ccccc1)c1cc([N+](=O)[O-])cc([N+](=O)[O-])c1                  1
 1  CC1=C(C(=O)Nc2cccc(C(F)(F)F)c2)C(c2ccccc2F)C(C(=O)Nc2cccc(C(F)(F)F)c2)=C(C)N1                 -1
 2  CCOC(=O)C1=C(c2ccccc2)c2ccccc2OC1C(=O)O (stereo unspecified)                  1
 3               Cc1c(F)c(C)c(C(=O)O)c(C)c1F                  1
 4        S=C(Nc1ccccc1)N(Cc1ccccc1)c1ccccc1                  1
 5           C=C(C)[P+](C)(c1ccccc1)c1ccccc1                 -1
 6                   C=CS(=O)(=O)c1ccc(C)cc1                  1
 7  COc1ccc(N=Nc2ccc3oc(=O)c(C(=O)Nc4ccc(Cl)cc4)cc3c2)cc1                  1
 8  CCCCCN(CCCCC)CC(C)(C)C(O)c1ccc(OC)c2ccccc12 (stereo unspecified)                 -1
 9   NC(=O)NC(=O)N/N=C/c1ccc([N+](=O)[O-])o1                 -1
10         Cc1cccc(-c2nnc(-c3cccc(C)c3)o2)c1                 -1
